Molecular target: Hck (UniProt P08631)
Sequence (P08631 whole entry, looked up): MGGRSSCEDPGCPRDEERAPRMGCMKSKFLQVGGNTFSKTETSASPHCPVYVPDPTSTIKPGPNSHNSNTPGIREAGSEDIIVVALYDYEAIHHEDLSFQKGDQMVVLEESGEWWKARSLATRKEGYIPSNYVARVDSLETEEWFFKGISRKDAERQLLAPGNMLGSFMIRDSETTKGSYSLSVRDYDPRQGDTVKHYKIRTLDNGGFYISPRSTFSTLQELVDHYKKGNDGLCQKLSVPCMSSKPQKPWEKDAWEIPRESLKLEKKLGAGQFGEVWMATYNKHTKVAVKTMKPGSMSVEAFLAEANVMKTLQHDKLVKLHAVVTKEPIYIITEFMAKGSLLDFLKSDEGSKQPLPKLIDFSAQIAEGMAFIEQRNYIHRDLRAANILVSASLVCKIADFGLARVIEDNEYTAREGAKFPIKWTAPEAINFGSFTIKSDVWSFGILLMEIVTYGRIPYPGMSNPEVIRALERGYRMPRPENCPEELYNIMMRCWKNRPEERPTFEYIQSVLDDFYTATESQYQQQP
Experiment: phosphorylation enrichment, bacterial display (enrichment ratio); higher = better substrate or ligand; peptides without Tyr show the background;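 also: 11-residue human phosphosite peptides and single-mutation variants displayed on the E. coli surface, counted by deep sequencing, each peptide's frequency after selection divided by its frequency in the unselected input library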;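 also: frequency after pTyr selection over input frequency; kinase dosed for 20-30% of maximal phosphorylation in three min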
yes means recorded phosphorylation enrichment is 0.5 or above; no means it is below 0.5.

Use these answered entries as a reference point.
{"Residue codes": "AGADGYGYLAP [FOXL2_Y186]", "Discrete label": "no"}
{"Residue codes": "LTERGYSFTTK [ACTG1_Y198_T203K]", "Discrete label": "yes"}
{"Residue codes": "DEYLEYRRIVG [FAM221A_Y20]", "Discrete label": "yes"}
{"Residue codes": "FRTGHYLCNAC [GATA1_Y223_D218Y_YF]", "Discrete label": "no"}
{"Residue codes": "VKANTYEKYWP [GATM_Y100]", "Discrete label": "yes"}
{"Residue codes": "SLIERYEPSET [PLCD1_Y258]", "Discrete label": "yes"}
{"Residue codes": "ALAHKYPGGGG [HBB_Y146_H147P]", "Discrete label": "no"}
{"Residue codes": "YPQARYHWLVL [APTX_Y214_K211Q]", "Discrete label": "yes"}

# input for lookup
Task: In plain terms: is recorded phosphorylation enrichment at least 0.5 for PFFASYPPSPD [GDAP2_Y491_T489A_YF] ?
Result: yes

* * *

For each entry below, report its phosphorylation enrichment value.
Molecular target: Fyn (UniProt P06241)
Sequence (P06241 whole entry, looked up): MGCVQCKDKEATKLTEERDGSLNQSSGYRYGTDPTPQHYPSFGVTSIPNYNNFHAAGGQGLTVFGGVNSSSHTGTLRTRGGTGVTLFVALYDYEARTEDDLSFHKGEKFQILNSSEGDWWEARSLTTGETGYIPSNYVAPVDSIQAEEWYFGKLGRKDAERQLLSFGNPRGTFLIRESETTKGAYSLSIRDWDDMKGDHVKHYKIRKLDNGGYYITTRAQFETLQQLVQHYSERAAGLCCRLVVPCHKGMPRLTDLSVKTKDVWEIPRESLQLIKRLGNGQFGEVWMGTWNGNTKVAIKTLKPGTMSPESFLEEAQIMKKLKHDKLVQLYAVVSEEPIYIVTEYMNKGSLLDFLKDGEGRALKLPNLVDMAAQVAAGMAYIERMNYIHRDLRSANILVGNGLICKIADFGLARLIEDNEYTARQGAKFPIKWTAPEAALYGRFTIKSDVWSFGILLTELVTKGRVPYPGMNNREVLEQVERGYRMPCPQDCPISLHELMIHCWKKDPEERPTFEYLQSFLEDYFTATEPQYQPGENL
Assay: phosphorylation enrichment, bacterial display (enrichment ratio); higher = better substrate or ligand; peptides without Tyr show the background

Answered cases to consult:
{"Residue codes": "WHHIFYNELRV [ACTG1_Y91_T89I]", "phosphorylation enrichment": 0.388}
{"Residue codes": "LWPIWYSCHRP [MRGPRX1_Y130_R131S]", "phosphorylation enrichment": 0.519}
{"Residue codes": "EIKLAYRRRPP [GRIN2B_Y1109_E1106K]", "phosphorylation enrichment": 0.526}
{"Residue codes": "LARHMYDKEYY [MET_Y1230_D1228H]", "phosphorylation enrichment": 0.638}
{"Residue codes": "AAQNCYKVTNG [TPI1_Y105]", "phosphorylation enrichment": 0.411}
{"Residue codes": "GDEAIYATVAG [NRTKtide_2018]", "phosphorylation enrichment": 10.7}

// switching to the query sequence
Task: Entry under review: RPASVYTKRCS [CPT2_Y508] . Reported phosphorylation enrichment?
Result: 0.623

* * *

Test system: AncSZ
Experiment: phosphorylation enrichment, bacterial display (enrichment ratio); higher = better substrate or ligand; peptides without Tyr show the background
Property label: phosphorylation enrichment

Answered cases to consult:
{"Residue codes": "CTTIHYYYMCN [TP53_Y234_N235Y]", "phosphorylation enrichment": 0.991}
{"Residue codes": "SLGKGYSVGGC [MC4R_Y35_D37V]", "phosphorylation enrichment": 0.724}
{"Residue codes": "GFRVFYTPDSR [PTPRF_Y451_YF]", "phosphorylation enrichment": 0.962}

Look at each sequence and report its phosphorylation enrichment.
1. CERFSYFGMKA [SLC15A2_Y60_YF]
2. GKTQQYECKWY [BCR_Y751_D752E]
3. KKLAEYGPQGK [CLCA1_Y147_R152K]
4. SIKDKYVTALF [KCNH2_Y611_YF]
5. SPFAVYRFFTF [RPGRIP1_Y826_YF]
6. LYEDRYLLGPS [ASS1_Y87_T91P]
7. EFENSCIFDIN [GAB1_Y83_Y83C]

Result:
1. 1.13
2. 0.936
3. 0.361
4. 0.684
5. 1.22
6. 1.2
7. 0.958

* * *

Target: Hck (UniProt P08631)
Assay: phosphorylation enrichment, bacterial display (enrichment ratio); higher = better substrate or ligand; peptides without Tyr show the background
For each entry below, report its phosphorylation enrichment value.
Answers are plain numbers.

{"Residue codes": "CEHRGYLYLAI [TEK_Y897]", "phosphorylation enrichment": 0.614}

Look at each sequence and report its phosphorylation enrichment.
1. RFLRGYRQFAF [HLA-A_Y137_D140Y_YF]
2. RKVLVYDKLNV [ROR2_Y624_N620K]

Result:
0.519
10.3

* * *

System: AncSZ
Assay: phosphorylation enrichment, bacterial display (enrichment ratio); higher = better substrate or ligand; peptides without Tyr show the background
For each entry below, report its phosphorylation enrichment value.
Numbers only.

{"Residue codes": "IVEYAYNDKAI [PUM3_Y259]", "Reported measurement": 1.28}
{"Residue codes": "AALVQYYMEHH [PTPN11_Y80_E76A]", "Reported measurement": 0.937}
{"Residue codes": "MALDRYVAICK [OR2B11_Y127]", "Reported measurement": 0.762}
{"Residue codes": "DVFVSYDCGKS [SORL1_Y139_Y141C_YF]", "Reported measurement": 0.969}
{"Residue codes": "PEVRRCVLPLN [RPE65_Y368_Y368C]", "Reported measurement": 0.906}
{"Residue codes": "EPYELYCEMGS [CBL_Y371_Q367P]", "Reported measurement": 3.71}

Look at each sequence and report its phosphorylation enrichment.
1. MSNFAYVKREV [SCN1A_Y1694]
2. ISSLCYELLEE [TRPC6_Y896_R895C]

Result:
0.729
2.07

Look at each sequence and report its phosphorylation enrichment.
1. VVLGSYDRLRV [IFT172_Y260]
2. CTNELYMMMRD [FGFR1_Y730]
3. AEVIWYKGDEV

Result:
1: 0.584; 2: 1.34; 3: 1.13

Look at each sequence and report its phosphorylation enrichment.
1. GENTVYAQVFN [LY9_Y603_M602V]
2. NVKGIYAVGDV [GSR_Y371]

Result:
0.819
0.714

Task: Entry under review: LWPIWYSCHRP [MRGPRX1_Y130_R131S] . Reported phosphorylation enrichment?
Result: 1.82

* * *

Test system: c-Abl (mouse)
Experiment: phosphorylation enrichment, bacterial display (enrichment ratio); higher = better substrate or ligand; peptides without Tyr show the background
Property label: phosphorylation enrichment

Answered cases to consult:
{"Residue codes": "IKRIDYEFVEM [ADA_Y84_A83D]", "phosphorylation enrichment": 0.622}
{"Residue codes": "GRVYVYHLSEQ [ITGAE_Y551_R552H]", "phosphorylation enrichment": 0.646}
{"Residue codes": "SESSYYKSLNL [NGEF_Y289_A286S]", "phosphorylation enrichment": 0.561}

Look at each sequence and report its phosphorylation enrichment.
1. SGDVQYRSSVR [FREM2_Y2158_T2153S]
2. ATPKGYETDAS [OTC_Y223_P225T]

Result:
0.481
0.622

* * *

Molecular target: FGFR3 (UniProt P22607)
Sequence (P22607 whole entry, looked up): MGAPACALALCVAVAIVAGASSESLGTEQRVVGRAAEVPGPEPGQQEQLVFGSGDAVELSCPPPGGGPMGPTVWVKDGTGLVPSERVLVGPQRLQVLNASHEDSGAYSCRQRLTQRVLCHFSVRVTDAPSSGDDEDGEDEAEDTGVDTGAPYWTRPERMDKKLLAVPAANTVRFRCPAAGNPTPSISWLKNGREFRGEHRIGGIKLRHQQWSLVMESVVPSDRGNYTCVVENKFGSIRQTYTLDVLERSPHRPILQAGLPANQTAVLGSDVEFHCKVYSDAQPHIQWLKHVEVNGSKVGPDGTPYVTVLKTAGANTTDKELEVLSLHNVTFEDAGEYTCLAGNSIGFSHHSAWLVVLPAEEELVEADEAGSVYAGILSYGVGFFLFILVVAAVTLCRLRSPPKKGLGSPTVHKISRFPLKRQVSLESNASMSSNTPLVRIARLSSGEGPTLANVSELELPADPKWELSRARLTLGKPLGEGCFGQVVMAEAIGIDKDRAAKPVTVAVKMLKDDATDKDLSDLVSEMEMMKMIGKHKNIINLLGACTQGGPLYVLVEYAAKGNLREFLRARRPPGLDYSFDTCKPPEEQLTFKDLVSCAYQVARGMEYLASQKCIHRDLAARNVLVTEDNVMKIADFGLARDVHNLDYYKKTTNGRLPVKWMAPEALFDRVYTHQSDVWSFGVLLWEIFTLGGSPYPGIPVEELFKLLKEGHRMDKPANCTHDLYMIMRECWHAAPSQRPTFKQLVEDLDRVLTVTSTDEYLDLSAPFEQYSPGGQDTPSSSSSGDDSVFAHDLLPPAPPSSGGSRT
Assay: phosphorylation enrichment, bacterial display (enrichment ratio); higher = better substrate or ligand; peptides without Tyr show the background
// map phosphorylation enrichment to label using category 1 (below 0.6), category 2 (0.6 to below 0.8), category 3 (0.8 or more)

Use these answered entries as a reference point.
{"Residue codes": "PYRQWYESHYA [RPS8_Y113]", "Discrete label": "category 3"}
{"Residue codes": "RLAQRYLIWEC [SCN5A_Y694]", "Discrete label": "category 3"}
{"Residue codes": "QEMMEYRHQIQ [DES_Y324]", "Discrete label": "category 3"}
{"Residue codes": "HFECKYVINAI [MAOA_Y268_YF]", "Discrete label": "category 3"}
{"Residue codes": "NSNSDYVDVLP [SH2D1B_Y127]", "Discrete label": "category 3"}
{"Residue codes": "GCKNHYDKDKP [THAP1_Y14_R13H]", "Discrete label": "category 1"}
{"Residue codes": "KLFIEYPTGSG [IRF2BPL_Y423]", "Discrete label": "category 1"}
{"Residue codes": "ISHVAYRVLGK [TRRAP_Y892]", "Discrete label": "category 1"}

Task: Determine which band this sequence sits in: IINENYDYLKV [NUP98_Y1664_G1669V]
Result: category 3

Task: Determine which band this sequence sits in: DGTGHYLGNAC [GATA5_Y208_C210G]
Result: category 1

Task: Determine which band this sequence sits in: STEEQYRIRQV [EFHC1_Y115]
Result: category 1

Task: Determine which band this sequence sits in: FADIAYNFHHG [PAH_Y166_R169H_YF]
Result: category 1

Task: Determine which band this sequence sits in: ETKENYGKTLK [CHL1_Y291]
Result: category 1

Task: Determine which band this sequence sits in: DQVEQYNKELE [LMNA_Y259_K260N]
Result: category 2

Task: Determine which band this sequence sits in: LYSNAYLSDLA [ALDH1A1_Y119_N121S]
Result: category 3

Task: Determine which band this sequence sits in: GDEEDYFEIPG [EGFR_opt_F_2015]
Result: category 3

Task: Determine which band this sequence sits in: ADELEYSRTGL [MMUT_Y287_G284E]
Result: category 2

Task: Determine which band this sequence sits in: EVKRLYGSVCD [TC2N_Y154]
Result: category 2

Task: Determine which band this sequence sits in: ILDEAYVMASV [EGFR_Y764]
Result: category 2

Task: Determine which band this sequence sits in: LEISPYMLSGR [LRRK2_Y1718]
Result: category 2

Data provenance: the supplement of paper PMC10065799
